- Test system: PANC-02-03 (Pancreatic Carcinoma)
- Test Details: Bliss excess, mean over the matrix (fraction); higher = more synergy;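 note: after 72 h of two-drug dosing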
Parameter Bliss excess: see the listing below.
Observed Property: Bliss excess

INSERT INTO results (compound, numeric_value) VALUES
  ('CC(=O)c1c(C)c2cnc(Nc3ccc(N4CCNCC4)cn3)nc2n(C2CCCC2)c1=O [Palbociclib] + Cn1cnc2c(F)c(Nc3ccc(Br)cc3Cl)c(C(=O)NOCCO)cc21 [Selumetinib] (first compound max 10 µM, 7x7, partner max 10 µM)', 0.0334),
  ('COc1cccc(OCCCN)c1-c1cc(Nc2cnc(C#N)cn2)n[nH]1 [Prexasertib] + C=CCn1c(=O)c2cnc(Nc3ccc(N4CCN(C)CC4)cc3)nc2n1-c1cccc(C(C)(C)O)n1 [AZD1775] (first compound max 1 µM, partner max 1 µM)', 0.0504),
  ('NC1(C(=O)N[C@@H](CCO)c2ccc(Cl)cc2)CCN(c2ncnc3[nH]ccc23)CC1 [Capivasertib] + Cn1cnc2c(F)c(Nc3ccc(Br)cc3Cl)c(C(=O)NOCCO)cc21 [Selumetinib] (first compound max 10 µM, 7x7, partner max 10 µM)', 0.0589),
  ('CC1(C)CCC(CN2CCN(c3ccc(C(=O)NS(=O)(=O)c4ccc(NCC5CCOCC5)c([N+](=O)[O-])c4)c(Oc4cnc5[nH]ccc5c4)c3)CC2)=C(c2ccc(Cl)cc2)C1 [Venetoclax] + CCN(CCO)CCCOc1ccc2c(Nc3cc(CC(=O)Nc4cccc(F)c4)[nH]n3)ncnc2c1 [AZD2811] (first compound max 1 µM, 7x7, partner max 1 µM)', -0.0283),
  ('NC1(C(=O)N[C@@H](CCO)c2ccc(Cl)cc2)CCN(c2ncnc3[nH]ccc23)CC1 [Capivasertib] + CC(C)n1c(=O)n(C)c2cnc3cc(F)c(-c4ccc(OCCCN5CCCCC5)nc4)cc3c21 [AZD1390] (first compound max 10 µM, 7x7, partner max 0.3 µM)', -0.013),
  ('Cc1c2c(nn1C)CSCc1cc(n(C)n1)CSc1cc(c3ccccc3c1)OCCCc1c(C(=O)O)n(C)c3c-2c(Cl)ccc13 [AZD5991] + CC(=O)O[C@H]1C(=O)[C@@]2(C)[C@H]([C@H](OC(=O)c3ccccc3)[C@]3(O)C[C@H](OC(=O)[C@H](O)[C@@H](NC(=O)c4ccccc4)c4ccccc4)C(C)=C1C3(C)C)[C@]1(OC(C)=O)CO[C@@H]1C[C@@H]2O [Paclitaxel] (first compound max 1 µM, 7x7, partner max 3 µM)', -0.0131),
  ('COc1nnc2ccc(N3CCC(c4ccc(OCCN5CCN(C)C(=O)[C@H]5C)cc4)CC3)nn12 [AZD5153] + CC1(C)CCC(CN2CCN(c3ccc(C(=O)NS(=O)(=O)c4ccc(NCC5CCOCC5)c([N+](=O)[O-])c4)c(Oc4cnc5[nH]ccc5c4)c3)CC2)=C(c2ccc(Cl)cc2)C1 [Venetoclax] (first compound max 1 µM, 7x7, partner max 1 µM)', -0.0263);

----------
- Tested on: LOUCY (T-Lymphoblastic Leukemia)
- Test Details: Bliss excess, mean over the matrix (fraction); higher = more synergy
Observed Property: Bliss excess

INSERT INTO assay_data (compound, observed_property, numeric_value) VALUES
  ('CN(CCO)CC[C@H](CSc1ccccc1)Nc1ccc(S(=O)(=O)NC(=O)c2ccc(N3CCC([C@@H](O)c4ccccc4-c4ccc(Cl)cc4)CC3)cc2)cc1S(=O)(=O)C(F)(F)F [AZD4320] + CC(=O)O[C@H]1C(=O)[C@@]2(C)[C@H]([C@H](OC(=O)c3ccccc3)[C@]3(O)C[C@H](OC(=O)[C@H](O)[C@@H](NC(=O)c4ccccc4)c4ccccc4)C(C)=C1C3(C)C)[C@]1(OC(C)=O)CO[C@@H]1C[C@@H]2O [Paclitaxel] (first compound max 1 µM, 7x7, partner max 3 µM)', 'Bliss excess', 0.0229),
  ('Cc1cc2ncnn2cc1Nc1ncc2c(n1)n(C1CCOCC1)c(=O)n2C [AZD7648] + CCN(CCO)CCCOc1ccc2c(Nc3cc(CC(=O)Nc4cccc(F)c4)[nH]n3)ncnc2c1 [AZD2811] (first compound max 10 µM, 7x7, partner max 1 µM)', 'Bliss excess', -0.043),
  ('COc1nnc2ccc(N3CCC(c4ccc(OCCN5CCN(C)C(=O)[C@H]5C)cc4)CC3)nn12 [AZD5153] + Cc1c2c(nn1C)CSCc1cc(n(C)n1)CSc1cc(c3ccccc3c1)OCCCc1c(C(=O)O)n(C)c3c-2c(Cl)ccc13 [AZD5991] (first compound max 1 µM, 7x7, partner max 1 µM)', 'Bliss excess', 0.0187);
